I'd be grateful if you could share measured kon for these entries.
biological target: T1, human MSLN-FL-his protein (human, UniProt Q13421 296-580); test: SPR (Biacore), antibody captured on Protein A chip;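 note: measured at 25 °C, analyte injected 240 s in five twofold dilutions from 200 nM, dissociation up to 600 s, double-referenced, fitted with Langmuir 1:1 model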
T1 construct: made in HEK293E cells, purified on nickel column; also called hMSLN-FL-his; human MSLN full-length protein; not shown: His tag
T1 sequence (Q13421 other isoform, or with tags, fused parts or gaps): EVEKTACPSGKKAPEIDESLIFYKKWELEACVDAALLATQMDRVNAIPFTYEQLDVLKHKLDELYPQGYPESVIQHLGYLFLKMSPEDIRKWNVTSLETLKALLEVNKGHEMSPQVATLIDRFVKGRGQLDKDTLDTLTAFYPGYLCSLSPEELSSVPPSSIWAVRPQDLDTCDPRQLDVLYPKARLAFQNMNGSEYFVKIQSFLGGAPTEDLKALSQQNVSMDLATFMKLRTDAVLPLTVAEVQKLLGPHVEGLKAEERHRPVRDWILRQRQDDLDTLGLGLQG
The answer is to be given in M⁻¹ s⁻¹; state only the numeric part.

# get_value(readout='kon', item= S009-F2.16.10 (antibody, human IgG1, kappa, V domains shown, human-murine chimeric antibody, human IgG1/kappa constant regions) VH: QVQLQQPGAELIKPGASVKLSCKASGYTFTSYWMHWVKQRPGQGLEWIGIIHPNIGSTNYNERFKSKATLTVDKSSSTAYMQLSSLTSEDSAVYYCARRSSNYGDWYFDVWGTGTTVTVSS VL: DIVMTQSHRFMSTSVGDRVSITCKASQDVGTSVAWYQQKPGQSPKLLIYWASTQHTGVPDRFTGSGSGTDFTLTINNVQSEDLLDYFCQQYSSYPLTFGAGTKLELKR )
1.09e+06

Could you tell me which kon is on file for S009-F1.25.10 (antibody, human IgG1, kappa, V domains shown, human-murine chimeric antibody, human IgG1/kappa constant regions) VH: EVQLQQSGPELVKPGASLKISCKASGYSFTDYTMNWVKQSHGKNLEWIGLFNPYNGGISYNQKFKGKATLTVDKSSNTAYMELLSLTSDDSAVYFCARDGRGGFYAMDYWGQGTSVTVSS VL: DIQMTQTTSSLSASLGDRVTISCRASQDISIYLNWYQQKPDGPVKLLIYYTSRLHSGVPSRFSGSGSGTDFSLTISNLEQEDIATYFCQQGYTLPPWTFGGGTKLEIKR ?
3600
